Test system: SNB-19 CNS
Test: NCI-60 one-dose screen, 48 h (100 = growth as untreated, 0 = no growth, -100 = all killed)
Conditions: 10 µM unless noted
About 83,000 compounds went through this panel and 20% of them were active in at least one assay; those are over-represented in the sample as a whole.
Listing: growth of selected molecules
Output spec: scalar in %, unitless text.

Take a look at these entries with their results.
INSERT INTO measurements (molecule, quantity_name, quantitative_result) VALUES
  ('COc1cc(Nc2nc(NCCN)nc3cc[nH]c(=O)c23)cc(OC)c1', 'growth', 102),
  ('O=c1c2cc(F)ccc2sc2c(N3CCNCC3)nc3ccccc3c12', 'growth', 65.3),
  ('CN(C)CCCNc1nc2ccccc2c2c(=O)c3cc(F)ccc3sc12', 'growth', 68.4),
  ('COc1nc2ccccc2cc1-c1nc2c(cnn2-c2ccc(Br)cc2)c(=O)[nH]1', 'growth', 21.5),
  ('COc1ccc(-c2cc(-c3ccc(Cl)cc3)c(C#N)c(=O)n2CCCCCC(=O)Nc2ccccc2N)cc1', 'growth', 70.7),
  ('CCOC(=O)c1sc2ncc(-c3ccc(OC)cc3)n2c1C', 'growth', 92.4);

growth recorded for this molecule, `CCN(CC)CCNC(=O)c1cn2ncnc(Oc3ccc(NC(=O)Nc4ccc(Cl)c(C(F)(F)F)c4)cc3)c2c1C` , is -83.4

growth recorded for this molecule, CCc1cccc2c3c(sc12)C(c1ccc(F)cc1)C(C#N)=C(N)O3 (stereo not drawn) , is 39.8

###

System: PC-3 prostate
Experiment: NCI-60 one-dose screen, 48 h (100 = growth as untreated, 0 = no growth, -100 = all killed)
Details: 10 µM unless noted
This is part of a sample that, as a whole, favours compounds with a hit. Of some 83,000 tested, about 20% had one in any assay.
Quantity name: growth (%)
Output spec: scalar in %, unitless text.

Take a look at these entries with their results.
INSERT INTO measurements (compound, quantitative_result) VALUES
  ('OC(c1ccccc1)C(NC(Cc1ccccc1)c1ccccc1)c1ccccc1 (stereo unspecified)', 80.5),
  ('O=C1NC(=O)C(c2ccccc2)(c2ccccc2)N1Cc1cn(-c2c3ccccc3nc3ccccc23)nn1', 78),
  ('COc1cc(CCC[P+](c2ccccc2)(c2ccccc2)c2ccccc2)c(OC)c2c1OCO2', 14.4),
  ('Cc1cc2nc3ccc(N=Nc4ccc(N(C)C)cc4)cc3n(-c3ccccc3)c-2cc1=N', -72.3),
  ('C=C1C(=O)O[C@H]2[C@H]1CC/C(COC(=O)CCC(=O)NCCOCCOCC(=O)Nc1ccc(OC)c(C(N)=O)c1O)=C\CC[C@@]1(C)O[C@@H]21', 101),
  ('COc1ccc(CN2c3ccccc3Sc3ccccc32)c(F)c1', 30.3),
  ('N[C@@H](Cc1ccccc1)[C@@H](O)C(=O)NCc1ccc(F)cc1', 106),
  ('CSc1ccc2c(c1)c(CCN)c(C)n2Cc1ccc(Cl)c(Cl)c1', -90),
  ('COc1nc2ccc(C)cc2cc1-c1nc2c(cnn2-c2ccccc2)c(=O)[nH]1', 65.9),
  ('CCN1C(=O)N(CC)C2Nn3c(s/c(=C4\C(=O)Nc5ccccc54)c3=O)=NC21 (stereo unspecified)', 30.3);

Now look at this entry.
growth recorded for this compound, `NCCOc1ncccc1/C=C1\c2ccccc2-c2ccc(C(F)F)cc21` , is 50.9

###

Tested on: HT29 colon
Assay: NCI-60 one-dose screen, 48 h (100 = growth as untreated, 0 = no growth, -100 = all killed)
Conditions: 10 µM unless noted
The panel holds about 83,000 compounds, 20% with a hit somewhere; the sample as a whole holds those more often.
Classification field. Basis: growth. Definitions: low (below 20%), middle (20% to below 80%), high (80% or more)

INSERT INTO results (compound, target_system, label) VALUES
  ('Cc1nc(NC(=O)COc2ccc(/C=C3\Cc4ccc(Cl)cc4C3=O)cc2)sc1C', 'HT29 colon', 'high'),
  ('CCCSc1nc2ccc(C)cc2cc1/C=[N+](\[O-])c1ccccc1', 'HT29 colon', 'low'),
  ('CC(=O)c1ccc(Nc2nc(C(C)=O)c(C)s2)cc1', 'HT29 colon', 'high');

Query block: Hello team, could you let me know which band the following compound falls into: `O=C1CCC/C=C\C[C@H]2C=CC(=O)/C2=C/C[C@H](CCc2cccc(C(F)(F)F)c2)O1`
Result block: low

Query block: Hello team, could you let me know which band the following compound falls into: `C=C(C)[C@@H]1CC[C@]2(N=C=O)CC[C@]3(C)[C@H](CC[C@@H]4[C@@]5(C)Cc6c([nH]c7ccccc67)C(C)(C)[C@@H]5CC[C@]43C)[C@@H]12`
Result block: high

Query block: Hello team, could you let me know which band the following compound falls into: `COc1cc(C(=O)/C=C/c2c(Cl)nc3sccn23)cc(OC)c1OC`
Result block: middle

Query block: Hello team, could you let me know which band the following compound falls into: `Cc1c(C(=O)N[C@@H](Cc2ccccc2)C(=O)C(=O)NCc2ccc(F)cc2)[nH]c2ccccc2c1=O`
Result block: high

Query block: Hello team, could you let me know which band the following compound falls into: `Cc1cc(=O)oc2cc(OC(=O)CN3CCN(C)CC3)ccc12`
Result block: high

###

System: SW-620 colon
Assay: NCI-60 one-dose screen, 48 h (100 = growth as untreated, 0 = no growth, -100 = all killed)
Settings: 10 µM unless noted
The panel holds about 83,000 compounds, 20% with a hit somewhere; the sample as a whole holds those more often. Active and inactive are the calls of the source. The calls were made as follows: active = growth percent below 10; inactive = the rest.
Listing: growth of selected compounds

Take a look at these entries with their results.
INSERT INTO results (chemical_structure, quantity_name, result) VALUES
  ('CCN(CC)Cc1cc(Nc2c3ccc(Cl)cc3nc3ccc(OC)cc23)ccc1O', 'growth', '31.7% (inactive)'),
  ('CCc1cccc2c1S/C(=C/c1ccc(Cl)cc1)C2=O', 'growth', '94.5% (inactive)');

growth recorded for this compound, `O=c1c2cc(F)ccc2sc2c(N3CCNCC3)nc3ccccc3c12` , is -87.1% (active)

###

Tested on: M14 melanoma
Assay: NCI-60 one-dose screen, 48 h (100 = growth as untreated, 0 = no growth, -100 = all killed)
Conditions: 10 µM unless noted
This is part of a sample that, as a whole, favours compounds with a hit. Of some 83,000 tested, about 20% had one in any assay.
Label key: Criterion met means growth under 50%; Criterion not met means growth of 50% or more.

Worked set:
INSERT INTO assay_data (molecule, target_system, label) VALUES
  ('c1cc2nc(-c3cn[nH]c3)c3c(c2cc1-c1cn[nH]c1)C1CCC3C1 (centres undefined)', 'M14 melanoma', 'Criterion not met'),
  ('COc1cc(CCC[P+](c2ccccc2)(c2ccccc2)c2ccccc2)c(OC)c2c1OCO2', 'M14 melanoma', 'Criterion met');

Query block: Criterion: growth strictly below 50%. Is it met by `CN1CCN(Cc2ccc(NC(=O)c3cncc(C#Cc4cnccc4C#N)c3)cc2C(F)(F)F)CC1` ?
Result block: Criterion met

Query block: Criterion: growth strictly below 50%. Is it met by `COc1ccc(S(=O)(=O)n2c3ccccc3n3ncc(-c4nnc(C)o4)c23)cc1` ?
Result block: Criterion met

Query block: Criterion: growth strictly below 50%. Is it met by `NCCCNc1nc2ccccc2c2c(=O)c3cccc(F)c3sc12` ?
Result block: Criterion met

Query block: Criterion: growth strictly below 50%. Is it met by `Cn1cc(-c2ccc3cc(-c4ccc(CC(=O)Nc5cc(C(C)(C)C)nn5C)cc4)cnc3c2)cn1` ?
Result block: Criterion met

Query block: Criterion: growth strictly below 50%. Is it met by O=C1CCC(C(=O)NCCNCCNC(=O)C2CCC(=O)N2)N1 (centres undefined) ?
Result block: Criterion not met

###

Test system: RPMI-8226 leukemia
Experiment: NCI-60 one-dose screen, 48 h (100 = growth as untreated, 0 = no growth, -100 = all killed)
Settings: 10 µM unless noted
Procedure: Growth inhibition of the RPMI-8226 human tumor cell line is measured as a screen for anti-cancer activity. Cells are grown in 96 well plates and exposed to the test compound for 48 hours. Compounds are tested at a single concentration, which is 10^-5 M for most compounds. The reported endpoint is percent growth (GI% or GIPRCNT), where numbers from 0 - 100% represent growth inhibition, and numbers from -100% - 0 represent cell death. For example, a value of 40 represents 60% growth inhibition. […]
Compounds without any hit were thinned out: in the full panel of roughly 83,000, 20% have a hit. The source made the active and inactive calls. Rule for the calls: active = growth percent below 10; inactive = the rest.
Listing: growth of selected molecules

Take a look at these entries with their results.
INSERT INTO assay_data (molecule, quantity_name, result) VALUES
  ('CC(=O)CC(c1cccs1)c1c(-c2ccccc2)[nH]c2ccccc12 (stereo not drawn)', 'growth', '78% (inactive)'),
  ('COc1ccc(-c2nc3sc(-c4ccccc4)cn3n2)cc1', 'growth', '78.6% (inactive)');

Result for `CCOC(=O)/C(C#N)=C\Nc1ccc2ncnc(Nc3ccc(Cl)cc3Cl)c2c1` , tested on RPMI-8226 leukemia, growth: 79.5% (inactive)
